# tested.system: Indoleamine 2,3-dioxygenase 1 (Homo sapiens)
# Sequence (P14902 whole entry): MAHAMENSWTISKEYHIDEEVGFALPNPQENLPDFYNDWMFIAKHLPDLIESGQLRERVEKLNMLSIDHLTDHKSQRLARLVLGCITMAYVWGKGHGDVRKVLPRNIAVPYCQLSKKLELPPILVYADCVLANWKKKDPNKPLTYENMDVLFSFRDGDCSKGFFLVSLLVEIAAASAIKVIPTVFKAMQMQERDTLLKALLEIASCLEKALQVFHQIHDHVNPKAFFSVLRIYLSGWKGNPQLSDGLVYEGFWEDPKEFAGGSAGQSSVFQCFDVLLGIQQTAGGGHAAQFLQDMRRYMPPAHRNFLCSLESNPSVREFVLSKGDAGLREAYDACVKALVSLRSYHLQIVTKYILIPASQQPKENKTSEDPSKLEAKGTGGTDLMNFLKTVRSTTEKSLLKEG
# protocol: Competitive inhibition of histidine-tagged human recombinant IDO expressed in bacterial strain BL21 AI using L-Trptophan as substrate measured at 490 nm wavelength after 6 min by colorimetric assay
measured.parameter: pIC50
Value format note: pIC50 is -log10 of concentration (mol/L); just state the number.

### Prompt Could you share what pIC50 was measured for Cn1c(C(=O)Cc2cccnc2)cc2cc(F)ccc21 , tested on Indoleamine 2,3-dioxygenase 1 (Homo sapiens)?
### Response 4.04

====

# protocol: Cytotoxicity against mouse mastocytoma P815B cells assessed as cell viability at 20 uM after overnight incubation by MTT assay
# Format: cell-based
# test.conditions: mastocytoma P815B cells, read-out: Activity
measured.parameter: viability at 20 µM
Number first, unit second.

### Prompt I am curious: what viability at 20 µM value has been reported for O=C(Cc1cccnc1)c1cc2cc(Cl)ccc2[nH]1 ?
### Response 90%

### Prompt I am curious: what viability at 20 µM value has been reported for O=C(Cc1cccnc1)c1cc2c(F)cccc2[nH]1 ?
### Response 80%

### Prompt I am curious: what viability at 20 µM value has been reported for O=C(Cc1cccnc1)c1cc2cc([N+](=O)[O-])ccc2[nH]1 ?
### Response 90%

### Prompt I am curious: what viability at 20 µM value has been reported for OC(Cc1cccnc1)c1cc2ccccc2[nH]1 (configuration not stated) ?
### Response 90%

### Prompt I am curious: what viability at 20 µM value has been reported for Cn1c(C(=O)Cc2cccnc2)cc2cc(F)ccc21 ?
### Response 95%

### Prompt I am curious: what viability at 20 µM value has been reported for c1cncc(CCc2cc3ccccc3[nH]2)c1 ?
### Response 90%

### Prompt I am curious: what viability at 20 µM value has been reported for O=C(Nc1cccnc1)c1cc2ccccc2[nH]1 ?
### Response 75%
